Listed next: entries and their corresponding yeast fitness.
B1: tRNA (parent)
chain: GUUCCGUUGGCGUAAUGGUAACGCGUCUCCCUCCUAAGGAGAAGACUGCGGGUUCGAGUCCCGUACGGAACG

- Variants of: B1
- testSummary: yeast fitness relative to wild type (ratio to wild type); higher = fitter; tRNA-Arg(CCU), competitive growth, 37 C, YPD
Variants at the floor of the assay were thinned out.
Reply with the value as a number alone.

Solved entries:
                        variant  observedproperty  reportedresult
0                U13A C22A A42U     yeast fitness           0.582
1                C22U C27G A69U     yeast fitness           0.508
2                     C31G G63A     yeast fitness           0.848
3            C4U C30U A57G G68A     yeast fitness           0.525
4                 C4A G12A A45U     yeast fitness           0.546
5  G9C C11G C24U C31U U59A A70C     yeast fitness           0.563
6                     A40C C49A     yeast fitness           0.668
7                 U3C C55G U64A     yeast fitness           0.563
8      U13A A21C C24A G25C C66G     yeast fitness           0.512
9                     G68A A69C     yeast fitness           0.766

Query string: If you can, please state the reported yeast fitness value of U3G C29A .
Result string: 0.533

Query string: If you can, please state the reported yeast fitness value of A20C C46G C62G .
Result string: 0.529

Query string: If you can, please state the reported yeast fitness value of U3C G56A .
Result string: 1.03
